# abundance fitness annotations
B1: Chromodomain-helicase-DNA-binding protein 7, residues 2564 to 2605; numbered along this chain, Q9P2D1 (parent)
chain: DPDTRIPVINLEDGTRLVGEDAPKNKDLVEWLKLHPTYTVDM

Variants of: B1
ASSAY_NAME: abundance fitness (aPCA) (normalised: wild type 0, dead -1); higher = more abundant; growth selection in yeast, the domain comes from the species named
CONDITION_DESCRIPTION: Homo sapiens
QUANTITY: abundance fitness

# SEQ_TEXT, QUANTITY, NUMERIC_RESULT
records = [
    ("DPDTRIPVINLEDGTRLVQEDAPKNKDLVEWLKLHPTYTVDM [G19Q]", "abundance fitness", -0.437),
    ("DPDTRIPVINLEDGTRLTGEDAPKNKDLVEWLKLHPTYTVDM [V18T]", "abundance fitness", 0.118),
    ("DPDTRIPVINLEDGTRLVGEDAPKNKDLVEWLKLHPTYTHDM [V40H]", "abundance fitness", -0.372),
    ("DPDTRIPVINLEDGTRLVGEDAPKNKDLMEWLKLHPTYTVDM [V29M]", "abundance fitness", -0.095),
    ("DPDTRIPVINLEDGTRLVGEDIPKNKDLVEWLKLHPTYTVDM [A22I]", "abundance fitness", -0.483),
    ("DPDTRIPVINLEDGTRLVGEDAPKNKDLVPWLKLHPTYTVDM [E30P]", "abundance fitness", -0.345),
    ("DPDTRIPVINLEDGTRLVGEDAPKNKDAVEWLKLHPTYTVDM [L28A]", "abundance fitness", -0.292),
    ("DPDTRIPVINLEDGTRLVGEDTPKNKDLVEWLKLHPTYTVDM [A22T]", "abundance fitness", -0.527),
    ("DPDTRVPVINLEDGTRLVGEDAPKNKDLVEWLKLHPTYTVDM [I6V]", "abundance fitness", 0.262),
    ("DPDTRIPVINLEDGTRLGGEDAPKNKDLVEWLKLHPTYTVDM [V18G]", "abundance fitness", -0.04),
    ("DPDTRIPVINLEDATRLVGEDAPKNKDLVEWLKLHPTYTVDM [G14A]", "abundance fitness", -0.115),
    ("EPDTRIPVINLEDGTRLVGEDAPKNKDLVEWLKLHPTYTVDM [D1E]", "abundance fitness", -1.19),
    ("DPDTPIPVINLEDGTRLVGEDAPKNKDLVEWLKLHPTYTVDM [R5P]", "abundance fitness", -0.004),
    ("DPDTRIPVINLEDGTRLVGEDDPKNKDLVEWLKLHPTYTVDM [A22D]", "abundance fitness", -0.565),
    ("DPDTRIPVINLEDGTRLVGEDAPKNKDLVEWLKLHPTHTVDM [Y38H]", "abundance fitness", -0.216),
    ("DPDTRIPVINLEDGTKLVGEDAPKNKDLVEWLKLHPTYTVDM [R16K]", "abundance fitness", 0.06),
    ("DPWTRIPVINLEDGTRLVGEDAPKNKDLVEWLKLHPTYTVDM [D3W]", "abundance fitness", -0.53),
    ("DPDTRIPVINLEDGTRTVGEDAPKNKDLVEWLKLHPTYTVDM [L17T]", "abundance fitness", -0.308),
    ("DPDTRIPVINLEDGTCLVGEDAPKNKDLVEWLKLHPTYTVDM [R16C]", "abundance fitness", 0.154),
    ("DPDTRIPVINLEDGTRLVGEDAPKNKDLVEWLTLHPTYTVDM [K33T]", "abundance fitness", -0.468),
    ("DPDTRIPVINLEDGTRLVGYDAPKNKDLVEWLKLHPTYTVDM [E20Y]", "abundance fitness", -0.395),
    ("DPDTRIPVINLEDGTRLVGEDAPKNKDLVEWLKLLPTYTVDM [H35L]", "abundance fitness", -0.866),
    ("DPDTRIPVINLEDGTRLVGEDMPKNKDLVEWLKLHPTYTVDM [A22M]", "abundance fitness", -0.673),
    ("DPDTRIPVINLEDGTRLVGEDAPKNKDLVEILKLHPTYTVDM [W31I]", "abundance fitness", -0.463),
    ("DPDTRIPVINLEDGTRLVGEDAKKNKDLVEWLKLHPTYTVDM [P23K]", "abundance fitness", -0.515),
    ("DPHTRIPVINLEDGTRLVGEDAPKNKDLVEWLKLHPTYTVDM [D3H]", "abundance fitness", 0.089),
    ("DPDTRIPVINLEDGTRLVGESAPKNKDLVEWLKLHPTYTVDM [D21S]", "abundance fitness", -0.093),
    ("DPDTRIPVINLEDGTRLVGNDAPKNKDLVEWLKLHPTYTVDM [E20N]", "abundance fitness", -0.167),
    ("DPDTRIPVINLEDGTRLVGEDAPKNKDLVLWLKLHPTYTVDM [E30L]", "abundance fitness", -0.497),
    ("DPDTRIPVINLEDGTRLVGEDASKNKDLVEWLKLHPTYTVDM [P23S]", "abundance fitness", -0.79),
    ("DPDTRIPVINLEDGTRLVGEDAPKNKDLVEWLKLHCTYTVDM [P36C]", "abundance fitness", -0.78),
    ("DPDTRIPVINLEDGTRLVGEIAPKNKDLVEWLKLHPTYTVDM [D21I]", "abundance fitness", -0.512),
    ("DPDTRIPVINLEDGTRLVGEDAPKNKDLVEWLKLHDTYTVDM [P36D]", "abundance fitness", -0.685),
    ("DPDTRIPVINLEDGTRLVGEDAPKNKDLVEWLFLHPTYTVDM [K33F]", "abundance fitness", -0.339),
    ("DPDTRIPVINLEDGTRIVGEDAPKNKDLVEWLKLHPTYTVDM [L17I]", "abundance fitness", -0.012),
    ("DPDTRIPVINLEDGTRLVGEDAPKNKDLVEWLKLHPTYTVDG [M42G]", "abundance fitness", -0.096),
    ("DPDTRIPVINLEDGTRLVGEDAPKNKDLVEWLKIHPTYTVDM [L34I]", "abundance fitness", -0.417),
    ("DPDTRIPVINLEDGTRLVGEDAPKNKDLVEWLKLHPTYTVPM [D41P]", "abundance fitness", -0.453),
    ("DPDTRIPVINLEDGTRLVGEDAPKNKDLAEWLKLHPTYTVDM [V29A]", "abundance fitness", 0.11),
]

Ref: the Human Domainome abundance scans (Beltran et al. 2025)
